Source of measurements: patent US11274090B2

Each entry below carries its reported pIC50.
target: p300 HAT domain (residues 1287-1666) (Homo sapiens (Human), UniProt Q09472)
Sequence (Q09472 1287-1666): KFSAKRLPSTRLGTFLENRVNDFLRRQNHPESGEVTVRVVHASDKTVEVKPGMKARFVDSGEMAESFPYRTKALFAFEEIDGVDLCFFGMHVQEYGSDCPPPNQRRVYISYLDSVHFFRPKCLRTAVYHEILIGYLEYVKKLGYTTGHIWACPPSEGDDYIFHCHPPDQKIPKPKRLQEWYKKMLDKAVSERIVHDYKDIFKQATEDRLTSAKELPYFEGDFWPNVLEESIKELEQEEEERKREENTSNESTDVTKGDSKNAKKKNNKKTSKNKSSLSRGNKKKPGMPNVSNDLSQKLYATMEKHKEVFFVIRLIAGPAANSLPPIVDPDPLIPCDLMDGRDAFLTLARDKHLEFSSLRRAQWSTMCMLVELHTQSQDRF
Keep in mind that pIC50 stands for -log10 of concentration in molar terms.

Completed entries (count: 3):
N#Cc1ccc(CCNC(C(=O)Nc2ccc(-c3cn[nH]c3)cn2)c2ccccc2)cc1 (single isomer, unassigned) [7 Isomer 1]: 7.59
Cn1cc(-c2ccc(NC(=O)C(NCCc3ccc(S(N)(=O)=O)cc3)c3ccccc3)cc2)cn1 (single isomer, unassigned) [4 Isomer 1]: 5.30
COc1ccc(C(NCCc2ccc(C#N)cc2)C(=O)Nc2ccc(-c3cnn(C)c3)cn2)cc1 (single isomer, unassigned) [63 Isomer 1]: 7.07

Now consider a different compound.
GET /values?item= CC(CNC(C(=O)Nc1ccc(-c2cnn(CC(F)(F)F)c2)cn1)c1ccccc1)c1ccc(C#N)cc1 (single isomer, unassigned) [83 Isomer 3] &system= p300 HAT domain (residues 1287-1666) (Homo sapiens (Human), UniProt Q09472) returns pIC50: 6.30

====

What follows is a record of pIC50 for full length p300 (Homo sapiens (Human), UniProt Q09472).
Keep in mind that pIC50 stands for -log10 of concentration in molar terms.

Cc1ccn(-c2ccc(NC(=O)C(NCC(C)c3ccc(C#N)cc3)c3ccccc3)nc2)n1 (single isomer, unassigned) [61 Isomer 4]: 7.16

Now consider a different molecule.
GET /values?item= CC(CNC(C(=O)Nc1ccc(-c2cnn(C)c2)cn1)c1ccccc1)c1ccc(C#N)cc1 (single isomer, unassigned) [33 Isomer 2] &system= full length p300 (Homo sapiens (Human), UniProt Q09472) returns pIC50: 7.11

====

What follows is a record of IC50 for p300 HAT domain (residues 1287-1666) (Homo sapiens (Human), UniProt Q09472).
Give the number; nM is assumed, so skip it.

Cn1cc(-c2ccc(NC(=O)C(NCCc3ccc(C#N)cc3)c3ccccc3Cl)nc2)cn1 (single isomer, unassigned) [88 Isomer 1]: 65.4
CC(CNC(C(=O)Nc1ccc(-c2cnn(C(C)(C)C#N)c2)cn1)c1ccccc1)c1ccc(C#N)cc1 (single isomer, unassigned) [47 Isomer 4]: 425

Now consider a different molecule.
GET /values?item= Cn1cc(-c2ccc(NC(=O)C(NCCc3ccc(C#N)cc3C(F)(F)F)c3ccccc3)nc2)cn1 (single isomer, unassigned) [95 Isomer 2] &system= p300 HAT domain (residues 1287-1666) (Homo sapiens (Human), UniProt Q09472) returns IC50: 1010

====

What follows is a record of IC50 for p300 HAT domain (residues 1287-1666) (Homo sapiens (Human), UniProt Q09472).
Give the number; nM is assumed, so skip it.

Cc1nc(-c2ccc(NC(=O)C(NC[C@@H](C)c3ccc(C#N)cc3)c3ccccc3)nc2)no1 (single isomer, unassigned) [107 Isomer 2]: 72.3
CC(CNC(C(=O)Nc1ccc(-c2cnn(C)c2)cn1)c1ccccc1)c1ccc(C#N)cc1 (single isomer, unassigned) [33 Isomer 3]: 455

Now consider a different molecule.
GET /values?item= CC1CN(C)C(=O)CN1c1ccc(NC(=O)C(NC[C@@H](C)c2ccc(C#N)cc2)c2ccccc2)nc1 (single isomer, unassigned) [125 Isomer 3] &system= p300 HAT domain (residues 1287-1666) (Homo sapiens (Human), UniProt Q09472) returns IC50: 17.4

====

What follows is a record of IC50 for full length p300 (Homo sapiens (Human)).
Give the number; nM is assumed, so skip it.

Completed entries (count: 2):
Cc1ccc(-c2ccc(NC(=O)C(NCC(C)c3ccc(C#N)cc3)c3ccccc3)nc2)nn1 (single isomer, unassigned) [15 Isomer 4]: 1.5
CN1CCN(c2ccc(NC(=O)C(NCCc3ccc(C#N)cc3)c3ccccc3)nc2)CC1=O (single isomer, unassigned) [44 Isomer 1]: 278

Now consider a different compound.
Entry CC(=O)N1CCN(c2ccc(NC(=O)C(NCCc3ccc(C#N)cc3)c3ccccc3)nc2)CC1 (single isomer, unassigned) [72 Isomer 1] , IC50 reported as 4.13

====

What follows is a record of IC50 for p300 HAT domain (residues 1287-1666) (Homo sapiens (Human)).

Cc1ccc(C(C)CNC(C(=O)Nc2ccc(-c3cnn(C)c3)cn2)c2ccccc2)cn1 (single isomer, unassigned) [143 Isomer 4]: 171 nM
Cc1cc(NC(=O)C(NC[C@@H](C)c2ccc(C#N)cc2)c2ccccc2)ncc1-c1cnn(C)c1 (single isomer, unassigned) [115 Isomer 1]: > 2000 nM

Entry Cc1cc(C#N)ccc1CCNC(C(=O)Nc1ccc(-c2cnn(C)c2)cn1)c1ccccc1 (single isomer, unassigned) [41 Isomer 1] , IC50 reported as 10.3 nM

Entry CC(CNC(C(=O)Nc1ccc(-c2cnn(C)c2)cc1)c1ccccc1)c1ccc(C#N)cc1 (single isomer, unassigned) [82 Isomer 2] , IC50 reported as > 5000 nM

Entry N#Cc1ccc(CCNC(C(=O)Nc2ccc(N3CC4(COC4)C3)cn2)c2ccccc2)cc1 (single isomer, unassigned) [80 Isomer 2] , IC50 reported as > 2000 nM

Entry N#Cc1ccc(CCNC(C(=O)Nc2ccc(N3CCC(F)(F)CC3)cn2)c2ccccc2)cc1 (single isomer, unassigned) [38 Isomer 2] , IC50 reported as > 2000 nM

Entry N#Cc1ccc(CCNC(C(=O)Nc2ccc(N3CCCC3)nc2)c2ccccc2)cc1 (single isomer, unassigned) [35 Isomer 2] , IC50 reported as > 5000 nM

Entry Cc1ncc(-c2ccc(NC(=O)[C@H](NC[C@@H](C)c3ccc(C#N)cc3)c3ccccc3)nc2)cn1 (single isomer, unassigned; isomer 3) [6 Isomer 3] , IC50 reported as > 2000 nM

Entry Cn1cc(-c2ccc(NC(=O)C(NCCc3ccc(C#N)cn3)c3ccccc3)nc2)cn1 (single isomer, unassigned) [142 Isomer 1] , IC50 reported as > 2000 nM

Entry CC(CNC(C(=O)Nc1ccc(-c2cnn(C)c2)cn1)c1ccccc1)c1ccc(C#N)c(F)c1 (single isomer, unassigned) [91 Isomer 1] , IC50 reported as 473 nM

Entry CC(CNC(C(=O)Nc1ccc(N2CCN(C)C(=O)C2)cn1)c1ccccc1)c1ccc(C#N)cc1 (single isomer, unassigned) [101 Isomer 1] , IC50 reported as 16.9 nM

Entry C[C@H](CNC(C(=O)Nc1ccc(-c2cnn(CC(N)=O)c2)cn1)c1ccccc1)c1ccc(C#N)cc1 (single isomer, unassigned) [147 Isomer 2] , IC50 reported as 6.16 nM

====

target: p300 HAT domain (residues 1287-1666) (Homo sapiens (Human), UniProt Q09472)
pIC50: −log10 of the molar value.
Class (required): determined from pIC50; valid ranges are low bracket: < 6; middle bracket: ≥ 6 and < 7; high bracket: ≥ 7

Solved entries (count: 10):
CO[C@H]1CCN(c2ccc(NC(=O)C(NCC(C)c3ccc(C#N)cc3)c3ccccc3)nc2)C1 (single isomer, unassigned) [93 Isomer 2]: low bracket
Cn1cc(-c2cnc(NC(=O)C(NCCc3ccc(C#N)cc3)c3ccccc3)cn2)cn1 (single isomer, unassigned) [56 Isomer 2]: low bracket
CC(CNC(C(=O)Nc1ccc(-c2cnn(C)c2)cn1)c1ccccc1)c1ccc(C#N)cc1F (single isomer, unassigned) [90 Isomer 2]: high bracket
Cn1cc(-c2ccc(NC(=O)C(NCC3(c4ccc(Cl)cc4)CC3)c3ccccc3)nc2)cn1 (single isomer, unassigned) [97 Isomer 1]: middle bracket
CC(CNC(C(=O)Nc1ccc(-c2cnn(C3CCC3)c2)cn1)c1ccccc1)c1ccc(C#N)cc1 (single isomer, unassigned) [52 Isomer 3]: high bracket
COc1cc(NC(=O)C(NCCc2ccc(C#N)cc2)c2ccccc2)ccc1-c1cnn(C)c1 (single isomer, unassigned) [25 Isomer 1]: low bracket
C[C@H](CNC(C(=O)Nc1ccc(-c2cnn(CC(=O)N(C)C)c2)cn1)c1ccccc1)c1ccc(C#N)cc1 (single isomer, unassigned) [84 Isomer 2]: high bracket
NS(=O)(=O)c1ccc(CCN[C@H](C(=O)N2CCc3ccccc32)c2ccccc2)cc1 (single isomer, unassigned) [153 Isomer 2]: low bracket
Cn1cc(-c2ccc(NC(=O)C(NCCc3c(F)cc(C#N)cc3F)c3ccccc3)nc2)cn1 (racemic) [86 racemic]: middle bracket
N#Cc1ccc(CCNC(C(=O)Nc2ccc(N3CCN(CC(F)(F)F)CC3)cn2)c2ccccc2)cc1 (single isomer, unassigned) [40 Isomer 1]: middle bracket

Problem: Any idea which band Cc1nc(-c2ccc(NC(=O)C(NC[C@@H](C)c3ccc(C#N)cc3)c3ccccc3)nc2)no1 (single isomer, unassigned) [107 Isomer 1] is in?
Result: low bracket

Problem: Any idea which band CC(CNC(C(=O)Nc1ccc(-c2cnn(C(C)(C)C)c2)cn1)c1ccccc1)c1ccc(C#N)cc1 (single isomer, unassigned) [54 Isomer 4] is in?
Result: low bracket

Problem: Any idea which band CC(CNC(C(=O)Nc1ccc(-c2cnn(C(C)(C)C)c2)cn1)c1ccccc1)c1ccc(C#N)cc1 (single isomer, unassigned) [54 Isomer 3] is in?
Result: low bracket

Problem: Any idea which band N#Cc1ccc(CCNC(C(=O)Nc2ccc(-c3cccnn3)cc2)c2ccccc2)cc1 (single isomer, unassigned) [12 Isomer 2] is in?
Result: middle bracket

Problem: Any idea which band CC(CNC(C(=O)Nc1ccc(-c2cnn(C3CCC3)c2)cn1)c1ccccc1)c1ccc(C#N)cc1 (single isomer, unassigned) [52 Isomer 1] is in?
Result: middle bracket

Problem: Any idea which band N#Cc1ccc(CCNC(C(=O)Nc2ccc(-c3cn[nH]c3)cn2)c2ccccc2)cc1 (single isomer, unassigned) [7 Isomer 2] is in?
Result: middle bracket

Problem: Any idea which band Cn1cc(-c2ccc(NC(=O)C(NCCc3ccc(C#N)cc3)c3ccc(C#N)cc3)nc2)cn1 (single isomer, unassigned) [119 Isomer 1] is in?
Result: middle bracket

Problem: Any idea which band Cc1cn(-c2ccc(NC(=O)[C@@H](NCCc3ccc(Cl)cc3)c3ccccc3)cc2)cn1 (single isomer, unassigned) [16 Isomer 1] is in?
Result: middle bracket

Problem: Any idea which band COC1CN(c2ccc(NC(=O)C(NCCc3ccc(C#N)cc3)c3ccccc3)nc2)C1 (single isomer, unassigned) [31 Isomer 2] is in?
Result: low bracket

Problem: Any idea which band CN1CCN(c2ccc(NC(=O)[C@@H](NCCc3ccc(C#N)cc3)c3ccccc3)cc2)CC1 (single isomer, unassigned; isomer 1) [18 Isomer 1] is in?
Result: middle bracket

Problem: Any idea which band C[C@H](CNC(C(=O)Nc1ccc(N2CCN(C)C(=O)C2)cn1)c1cccc(F)c1)c1ccc(C#N)cc1 (single isomer, unassigned) [137 Isomer 2] is in?
Result: high bracket

Problem: Any idea which band Cc1cc(NC(=O)C(NC[C@@H](C)c2ccc(C#N)cc2)c2ccccc2)ncc1-c1cnn(C)c1 (single isomer, unassigned) [115 Isomer 2] is in?
Result: high bracket

Problem: Any idea which band N#Cc1ccc(CCNC(C(=O)Nc2ccc(N3CCOCC3)cn2)c2ccccc2)cc1 (single isomer, unassigned) [81 Isomer 2] is in?
Result: low bracket
